# MEASURED TARGET: human PAH with the R408W mutation (Homo sapiens, UniProt P00439, R408W)
# Construct: expressed in transfected cells
# Sequence (P00439 whole entry R408W): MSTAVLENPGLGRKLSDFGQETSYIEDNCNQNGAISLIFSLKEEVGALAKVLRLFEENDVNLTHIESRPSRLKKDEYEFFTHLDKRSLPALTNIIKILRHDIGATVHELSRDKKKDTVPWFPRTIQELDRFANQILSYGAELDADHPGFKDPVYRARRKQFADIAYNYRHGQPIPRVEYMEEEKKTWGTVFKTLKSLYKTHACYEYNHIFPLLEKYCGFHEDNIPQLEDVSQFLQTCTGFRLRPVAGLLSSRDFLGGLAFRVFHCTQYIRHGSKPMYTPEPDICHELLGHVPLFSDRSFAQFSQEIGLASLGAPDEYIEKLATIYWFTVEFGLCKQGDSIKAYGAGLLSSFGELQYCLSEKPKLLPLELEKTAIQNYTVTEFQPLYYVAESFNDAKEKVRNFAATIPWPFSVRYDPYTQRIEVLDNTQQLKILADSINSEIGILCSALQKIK
# MEASUREMENT PROTOCOL: Cell Based Phenylalanine Flux Assay
# APPLIED CONDITIONS: A375 cells expressing human R408W PAH; 24 hrs compound incubation; 13C-Tyrosine by LC-MS; average where tested multiple times; read-out: AC50
Consider the following compounds and their measured AC50 readings.

O=C(CCc1nccs1)N1CCc2[nH]cnc2[C@@H]1c1nc2ccc(Br)cc2s1 [Example 1082]
> 5 µM
O=C(c1nccs1)N1CCc2[nH]cnc2[C@@H]1c1nc2ccccc2s1 [Example 1008]
> 5 µM

input: GET /values?readout=AC50&item= O=C(c1ocnc1C(F)(F)F)N1CCc2[nH]cnc2[C@H]1c1nc2ccccc2[nH]1 [Example 994]
output: < 0.5 µM

input: Would you mind telling me what AC50 value was observed for O=C(c1nnc(-c2cnn(CC(F)F)c2)o1)N1CCc2[nH]cnc2[C@H]1c1nc2ccccc2s1 [Example 1871] ?
output: < 0.5 µM

Origin of measurements: patent US20250171438A1
